These measurements were taken from paper PMC10815131.

Target Entity: AChE (Rattus norvegicus, UniProt P37136)
Sequence (P37136 32-614): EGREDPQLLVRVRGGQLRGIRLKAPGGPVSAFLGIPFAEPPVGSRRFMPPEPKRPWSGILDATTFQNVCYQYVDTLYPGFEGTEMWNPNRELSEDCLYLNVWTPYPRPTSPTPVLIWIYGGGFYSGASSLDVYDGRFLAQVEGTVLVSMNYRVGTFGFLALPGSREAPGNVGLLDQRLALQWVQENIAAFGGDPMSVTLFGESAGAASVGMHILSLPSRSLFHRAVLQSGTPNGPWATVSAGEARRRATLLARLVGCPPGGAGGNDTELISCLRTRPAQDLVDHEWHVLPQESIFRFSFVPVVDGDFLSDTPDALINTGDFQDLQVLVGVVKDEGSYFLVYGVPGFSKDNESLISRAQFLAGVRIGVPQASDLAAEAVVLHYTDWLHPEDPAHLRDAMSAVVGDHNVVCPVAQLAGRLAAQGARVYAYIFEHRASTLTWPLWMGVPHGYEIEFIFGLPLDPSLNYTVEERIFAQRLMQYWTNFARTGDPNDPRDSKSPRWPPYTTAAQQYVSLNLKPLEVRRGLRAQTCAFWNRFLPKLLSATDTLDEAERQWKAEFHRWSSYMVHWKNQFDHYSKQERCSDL
Measurement Description: biochemical
Protocol Conditions: tested at 1 μM; rat hippocampal homogenate; read-out: AChE Inhibition (%) ± SEM
Protocol: Male Wistar rats weighing 230–250 g were used. AChE activity was assessed using a colorimetric reported method with minor modifications. Hippocampal tissue was homogenized in 39 volumes of 75 mM sodium phosphate buffer (pH 7.4). A mixture of 2 mL containing the compounds assessed, acetylthiocholine iodide, and 50 μL tissue homogenate was incubated for 8 min. […] The extent of color production was measured spectrophometrically at 420 nm using Ultospec 3000 (Pharmacia Biotech, Piscataway, NJ, USA). […]
Property: inhibition at 1 µM

- Smiles Data: "O=C(Nc1cccc2ccccc12)NS(=O)(=O)c1ccc(OCCCN2CCCC2)cc1"
  inhibition at 1 µM: "25.2%"
- Smiles Data: "CN(C)c1ccc(NC(=O)NS(=O)(=O)c2ccc(OCCCN3CCCC3)cc2)cc1"
  inhibition at 1 µM: "29.9%"
- Smiles Data: "O=C(NC(c1ccccc1)c1ccccc1)NS(=O)(=O)c1ccc(OCCCN2CCCC2)cc1"
  inhibition at 1 µM: "> 37%"

Field: next compound
`NS(=O)(=O)c1ccc(OCCCN2CCOCC2)cc1` has a reported inhibition at 1 µM of < 5%

---

Target Entity: AChE (Rattus norvegicus, UniProt P37136)
Property: IC50

`O=C(NC(c1ccccc1)c1ccccc1)NS(=O)(=O)c1ccc(OCCCN2CCCC2)cc1` has a reported IC50 of > 10 µM
